Below: a set of entries, each annotated with reported IC50.
- Tested on: Panc1
- protocol summary: Time dependence of growth inhibitory activity, Panc1
- Type: cell-based
- details: Homo sapiens, PANC-1; Panc1, Drug Exposure 24 hr
Your answer is read as nM, so omit the unit and give the number.

> print(dat)
                                   molecule  endpoint.name  measured.number
1  Nc1ccn([C@@H]2O[C@H](CO)[C@@H](O)C2(F)F)c(=O)n1 [Gemcitabine, reference compound]           IC50               84

Query: # IC50 lookup, item `O=C(N/N=C/c1c(O)ccc2ccccc12)c1ccccc1O`
Response: 898
